TESTED ON: UniProt P53396
MEASUREMENT NOTES: ACLY enzyme activity test (ADP-Glo luminescence)
Format: biochemical
EXPERIMENTAL CONTEXT: 37° C., 30 minutes
QUANTITY: IC50 (µM)

Sample records with IC50:
MOLECULE | UNITS OF MEASURE | IC50
O=C(O)C1(CCCCCC/C=C\CCCCCCC2(C(=O)O)CCCC2)CCCC1 | µM | 22.6
CC(CCCC/C=C/CCCCCC(C)(C(=O)O)c1ccccc1)(C(=O)O)c1ccccc1 (centres unmarked) | µM | 52.2

(1) O=C(O)C1(CCCCCC/C=C\CCCCCCC2(C(=O)O)C=CCC2)C=CCC1 (centres unmarked)
(2) O=C(O)C1(CCCCC/C=C\CCCCCCC2(C(=O)O)C=CCC2)C=CCC1 (centres unmarked)
Which shows the larger IC50 value: 1 or 2 ? Please indicate the selected item by its label. 2

(A) O=C(O)C1(CCCCCC/C=C\CCCCCCC2(C(=O)OCCc3ccccc3Cl)C=CCC2)C=CCC1 (centres unmarked)
(B) O=C(O)C1(CCCCCC/C=C\CCCCCCC2(C(=O)O)CC=CCC2)CC=CCC1 (centres unmarked)
(C) O=C(O)C1(CCCCCC/C=C\CCCCCCCC2(C(=O)O)CC=CC2)CC=CC1
Exam item: list the entries in increasing order of IC50. Please list the labels in the order you were asked to rank them. C, B, A
(C: 1 µM, B: 5.3 µM, A: 8.5 µM)

====

Tested on: human pancreatic cancer cell MIA-PACA
MEASUREMENT NOTES: MTS cell proliferation assay, MIA-PACA
Format: cell-based
EXPERIMENTAL CONTEXT: Homo sapiens, MIA PaCa-2, read-out: IC50, inhibition of proliferation, MIA-PACA
QUANTITY: IC50 (µM)

MOLECULE | QUANTITY | MEAS VALUE
O=C(O)C1(CCCCCC/C=C\CCCCCCC2(C(=O)OCCc3ccc(F)cc3)C=CCC2)C=CCC1 (stereo not shown) [Compound M25] | IC50 | 11.9
O=C(O)C1(CCCCCC/C=C\CCCCCCC2(C(=O)OCCc3ccc4ccccc4c3)C=CCC2)C=CCC1 (stereo not shown) [Compound M29] | IC50 | 12.8
COC(=O)c1cc(Cl)c(O)c(S(=O)(=O)Nc2cc(-c3ccccc3)c(F)cc2F)c1 [NDI-091143, reference compound] | IC50 | 40.9
O=C(O)C1(CCCCCC/C=C\CCCCCCC2(C(=O)O)C=CCC2)C=CCC1 (stereo not shown) [Compound M5] | IC50 | 13.5

====

TESTED ON: Human ACLY (Homo sapiens (Human))
Sequence (P53396 whole entry): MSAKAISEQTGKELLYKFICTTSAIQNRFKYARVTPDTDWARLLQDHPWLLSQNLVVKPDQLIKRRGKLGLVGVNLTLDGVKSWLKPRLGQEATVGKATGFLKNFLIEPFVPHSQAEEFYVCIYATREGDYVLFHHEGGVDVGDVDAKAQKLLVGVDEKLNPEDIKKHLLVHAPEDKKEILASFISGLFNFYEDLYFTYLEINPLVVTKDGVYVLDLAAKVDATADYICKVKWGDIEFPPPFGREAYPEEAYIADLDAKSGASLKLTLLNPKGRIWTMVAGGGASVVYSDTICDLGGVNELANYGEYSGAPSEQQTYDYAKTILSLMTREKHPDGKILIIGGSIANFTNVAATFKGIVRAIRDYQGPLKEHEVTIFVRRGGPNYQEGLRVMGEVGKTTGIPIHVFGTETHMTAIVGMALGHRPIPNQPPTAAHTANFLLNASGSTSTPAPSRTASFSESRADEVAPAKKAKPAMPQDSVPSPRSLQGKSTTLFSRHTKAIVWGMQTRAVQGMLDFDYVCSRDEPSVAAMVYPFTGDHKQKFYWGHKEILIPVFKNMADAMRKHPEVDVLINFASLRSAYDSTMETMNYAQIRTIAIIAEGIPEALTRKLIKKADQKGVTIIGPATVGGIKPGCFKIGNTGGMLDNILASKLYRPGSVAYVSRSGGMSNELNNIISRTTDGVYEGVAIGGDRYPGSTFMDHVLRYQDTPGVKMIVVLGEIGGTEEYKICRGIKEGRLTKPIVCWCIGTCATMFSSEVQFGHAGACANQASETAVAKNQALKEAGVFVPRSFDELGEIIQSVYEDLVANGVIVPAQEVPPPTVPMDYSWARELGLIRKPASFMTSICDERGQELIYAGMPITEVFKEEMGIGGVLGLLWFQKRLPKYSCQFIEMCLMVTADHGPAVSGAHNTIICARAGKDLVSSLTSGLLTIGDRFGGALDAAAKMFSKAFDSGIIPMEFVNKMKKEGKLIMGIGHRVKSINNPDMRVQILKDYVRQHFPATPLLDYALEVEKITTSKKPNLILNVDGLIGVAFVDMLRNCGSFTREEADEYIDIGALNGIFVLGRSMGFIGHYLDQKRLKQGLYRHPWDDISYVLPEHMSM
MEASUREMENT NOTES: ACLY enzyme activity test (ADP-Glo luminescence)
Assay type: biochemical
EXPERIMENTAL CONTEXT: 37° C., 30 minutes
QUANTITY: IC50 (µM)

Sample records with IC50:
COMPOUND | TESTED ON | MEAS VALUE
O=C(O)C1(CCCCCC/C=C\CCCCCCC2(C(=O)OCCc3ccccc3F)C=CCC2)C=CCC1 (stereo not drawn) [Compound M23] | Human ACLY (Homo sapiens (Human)) | 3.3
C=CC(C)(CCCCCC/C=C\CCCCCCCC(C)(C=C)C(=O)O)C(=O)O (stereo not drawn) [Compound M10] | Human ACLY (Homo sapiens (Human)) | 1.9
O=C(O)C1(CCCCCC/C=C\CCCCCCCC2(C(=O)O)CC=CCC2)CC=CCC1 (stereo not drawn) [Compound M12] | Human ACLY (Homo sapiens (Human)) | 3.9

(P) O=C(O)C1(CCCCCC/C=C\CCCCCCC2(C(=O)OCc3ccc(Cl)cc3Cl)C=CCC2)C=CCC1 (stereo not drawn) [Compound M24]
(Q) O=C(O)C1(CCCCCCC=CCCCCCCC2(C(=O)OCCc3ccc(Cl)cc3Cl)C=CCC2)C=CCC1 (stereo not drawn) [Compound M19]
Which shows the larger IC50 value: P or Q ? Please indicate the selected item by its label. P
(P: 5.5 µM, Q: 3.1 µM)

Every entry's value here was drawn from patent US20250011272A1.
